Biological target: E. coli MurD (Escherichia coli)
Sequence (P14900 whole entry): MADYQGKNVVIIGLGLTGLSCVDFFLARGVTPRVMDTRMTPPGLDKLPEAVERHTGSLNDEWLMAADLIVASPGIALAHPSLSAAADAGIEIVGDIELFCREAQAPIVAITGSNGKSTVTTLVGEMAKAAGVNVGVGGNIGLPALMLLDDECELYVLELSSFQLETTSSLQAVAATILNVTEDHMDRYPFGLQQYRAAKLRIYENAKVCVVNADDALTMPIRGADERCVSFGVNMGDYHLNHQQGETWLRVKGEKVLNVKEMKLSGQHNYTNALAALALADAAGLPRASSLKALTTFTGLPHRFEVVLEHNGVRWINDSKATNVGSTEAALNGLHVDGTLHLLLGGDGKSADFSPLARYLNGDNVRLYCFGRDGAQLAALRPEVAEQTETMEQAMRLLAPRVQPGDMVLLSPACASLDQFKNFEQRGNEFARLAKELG
Some compounds, each annotated with its measured IC50.

A selection of reference data follows.
O=C1/C(=C/c2c(NCCO)nc3ccccn3c2=O)SC(=S)N1Cc1ccc2c(c1)OCO2; 15 µM
O=C1/C(=C/c2cccc(O)c2)SC(=S)N1Cc1ccc2c(c1)OCO2; > 100 µM
O=C1/C(=C/c2ccccc2O)SC(=S)N1Cc1ccc2c(c1)OCO2; > 100 µM
O=C1/C(=C/c2c(NCCOCCO)nc3ccccn3c2=O)SC(=S)N1Cc1ccc2c(c1)OCO2; > 100 µM
O=C1/C(=C/c2c(NCCCO)nc3ccccn3c2=O)SC(=S)N1Cc1ccc2c(c1)OCO2; > 100 µM

Next compound, please.
GET /values?readout=IC50&system=E. coli MurD (Escherichia coli)&item= O=C1/C(=C/c2cccc([N+](=O)[O-])c2)SC(=S)N1Cc1ccc2c(c1)OCO2
> 100 µM
